# Tested on: LOX IMVI melanoma
# Method Notes: NCI tumour cell line growth inhibition, 48 h; in the data active = GI50 below about 0.43 µM; inactive = the rest
Respond with a class label; see active, inactive

Recorded results for 5 compounds are shown here.
{"Compound": "O=C(Nc1ccccc1O)c1ccc(Oc2cccc(C(=O)Nc3ccccc3O)c2)cc1", "Class Assignment": "inactive"}
{"Compound": "COc1cccc2c1C(=O)c1c(O)c3c(c(O)c1C2=O)C[C@@](O)(C(=O)CO)C[C@@H]3OC1C[C@H](N)[C@H](O)[C@H](C)O1 (stereo not given in full)", "Class Assignment": "active"}
{"Compound": "O=C(CCl)N1c2ccccc2Sc2ccc3ccccc3c21", "Class Assignment": "active"}
{"Compound": "O=c1[nH]cnc2[nH]ncc12", "Class Assignment": "inactive"}
{"Compound": "O=c1cc(-c2ccccc2)[nH]n1-c1nc2ccccc2[nH]1", "Class Assignment": "inactive"}

Query string: Please state the recorded outcome for this compound: Cc1c2c[n+](C(C)C)ccc2c(C)c2c1[nH]c1ccccc12
Result string: inactive

Query string: Please state the recorded outcome for this compound: O=C(O)c1cc2cc(OCc3ccccc3)c(OCc3ccccc3)cc2[nH]1
Result string: inactive

Query string: Please state the recorded outcome for this compound: CN(C)C(=O)c1cc2cnc(Nc3ccc(-c4csc5c(=O)cc(N6CCOCC6)oc45)cc3)nc2n1C1CCCC1
Result string: active

Query string: Please state the recorded outcome for this compound: C=C1C(=O)O[C@H]2[C@H]1CC/C(COC(=O)CSCC(=O)OC/C1=C/CC[C@@]3(C)O[C@H]3[C@H]3OC(=O)C(=C)[C@@H]3CC1)=C\CC[C@@]1(C)O[C@@H]21
Result string: inactive

Query string: Please state the recorded outcome for this compound: C=CC(=O)N[C@H]1CCOC[C@H]1Nc1ncc2cc(-c3c(Cl)c(OC)cc(OC)c3Cl)ccc2n1
Result string: inactive
